Test: Cytotoxicity against Mycobacterium bovis Bacillus Calmette-Guerin infected mouse J774 cells assessed as cell viability at 100 ug/ml after 48 hrs by MTT assay
Format: cell-based
Conditions: read-out: Activity
Decide using viability at 48 h, 100 ug/ml alone. Strictly below 90%: True. Equal to or above 90%: False.

compound	class-name
O=C(N/N=C/c1cccc(Br)c1)c1cnccn1	False
N#Cc1cccc(/C=N/NC(=O)c2cnccn2)c1	False
NC(=O)c1cnccn1 [PYRAZINAMIDE]	True
CN(C)c1ccc(/C=N/NC(=O)c2cnccn2)cc1	True
O=C(N/N=C/c1cccc(O)c1)c1cnccn1	True
O=C(N/N=C/c1ccc(Br)cc1)c1cnccn1	True
O=C(N/N=C/c1ccccc1F)c1cnccn1	True
N#Cc1ccccc1/C=N/NC(=O)c1cnccn1	True
COc1cccc(/C=N/NC(=O)c2cnccn2)c1	False
O=C(N/N=C/c1ccccc1[N+](=O)[O-])c1cnccn1	False
CCN(CC)c1ccc(/C=N/NC(=O)c2cnccn2)cc1	True
O=C(N/N=C/c1cccc(Cl)c1)c1cnccn1	False
O=C(N/N=C/c1ccc(O)cc1)c1cnccn1	True
CCOc1ccc(/C=N/NC(=O)c2cnccn2)cc1	True
O=C(N/N=C/c1ccccc1Br)c1cnccn1	True
N#Cc1ccc(/C=N/NC(=O)c2cnccn2)cc1	False
COc1ccccc1/C=N/NC(=O)c1cnccn1	True
